Measured IC50, listed per entry for reference.
# assayed_system: Probable nicotinate-nucleotide adenylyltransferase (Staphylococcus aureus (strain N315), UniProt P65502);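 further: confirmatory retest of primary uHTS inhibitor hits against NadD over a range of doses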
# Sequence (P65502 whole entry): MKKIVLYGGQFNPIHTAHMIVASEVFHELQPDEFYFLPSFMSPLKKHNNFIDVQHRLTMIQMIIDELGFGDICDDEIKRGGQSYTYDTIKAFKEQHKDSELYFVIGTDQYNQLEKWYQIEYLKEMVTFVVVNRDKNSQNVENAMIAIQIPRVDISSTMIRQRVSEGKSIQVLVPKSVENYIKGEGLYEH
# Format: functional, Staphylococcus aureus subsp. aureus N315
Calls of active or inactive are those of the source.

| smiles_data | IC50 |
| --- | --- |
| Cc1ccc(Cn2nnc3c(O)nc(C4CCN(S(=O)(=O)c5ccc(S(=O)(=O)NC6CC6)cc5)CC4)nc32)cc1 | 23.7 µM (active) |
| Cc1ccc(S(=O)(=O)Nc2ccc(Nc3nccn4c(-c5ccccc5Oc5ccccc5)cnc34)cc2)cc1 | 10.4 µM (active) |

Entry "Cc1ccc(-n2nc(C)c(/C=N/c3ccc(S(=O)(=O)Nc4nccs4)cc3)c2O)cc1C" , IC50 reported as 4.08 µM (active)

Value of measured IC50 for the entry "Cc1ccc(-n2nc3c(c2NC(=O)c2cccs2)CSC3)cc1" : 6.35 µM (active)

* * *

# assayed_system: Estrogen receptor beta (Homo sapiens)
# Sequence (Q92731 whole entry): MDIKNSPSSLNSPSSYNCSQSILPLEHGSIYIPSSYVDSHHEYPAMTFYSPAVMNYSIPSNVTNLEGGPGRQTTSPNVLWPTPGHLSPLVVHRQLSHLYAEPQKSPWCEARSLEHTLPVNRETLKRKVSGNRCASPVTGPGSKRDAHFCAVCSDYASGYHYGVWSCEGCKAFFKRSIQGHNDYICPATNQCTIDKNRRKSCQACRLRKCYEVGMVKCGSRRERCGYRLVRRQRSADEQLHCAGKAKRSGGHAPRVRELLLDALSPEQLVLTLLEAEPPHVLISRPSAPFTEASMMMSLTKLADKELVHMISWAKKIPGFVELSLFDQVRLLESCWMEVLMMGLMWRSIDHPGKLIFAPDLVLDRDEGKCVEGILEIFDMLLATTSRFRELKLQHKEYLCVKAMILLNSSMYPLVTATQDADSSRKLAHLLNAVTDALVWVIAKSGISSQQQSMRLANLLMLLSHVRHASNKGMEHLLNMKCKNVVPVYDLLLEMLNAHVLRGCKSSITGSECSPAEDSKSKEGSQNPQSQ
# measurement_notes: ERβ–SRC-3 coactivator interaction inhibitors, confirmation, orthogonal assay, biochemical, ELISA, streptavidin-HRP readout (AID 1060)
parameter: IC50

Take a look at these entries with their results.
| smiles_data | IC50 |
| --- | --- |
| CCCC1=NN2C(=N)/C(=C\c3ccc(SCc4ccco4)o3)C(=O)N=C2S1 | > 50 µM (not active) |
| C/C(=N/NC(=O)c1cc2ccccc2cc1O)C1C(=O)c2ccccc2C1=O | 0.0588 µM (not active) |
| CC(=N)/C(C#N)=C(/O)CSc1nnnn1-c1ccc(C)cc1 | 0.345 µM (not active) |
| Cc1ccc(-n2c(=O)c(C#N)cc3c(=O)n4cccc(C)c4nc32)cc1 | < 77 µM (not active) |

Lab note: "COc1ccc2c(c1)c(=O)oc1cc(OCC(=O)NC3CCCCC3)ccc12" gave IC50 of > 50 µM (not active)

* * *

# assayed_system: Polyadenylate-binding protein 1 (Homo sapiens, UniProt P11940)
# Sequence (P11940 whole entry): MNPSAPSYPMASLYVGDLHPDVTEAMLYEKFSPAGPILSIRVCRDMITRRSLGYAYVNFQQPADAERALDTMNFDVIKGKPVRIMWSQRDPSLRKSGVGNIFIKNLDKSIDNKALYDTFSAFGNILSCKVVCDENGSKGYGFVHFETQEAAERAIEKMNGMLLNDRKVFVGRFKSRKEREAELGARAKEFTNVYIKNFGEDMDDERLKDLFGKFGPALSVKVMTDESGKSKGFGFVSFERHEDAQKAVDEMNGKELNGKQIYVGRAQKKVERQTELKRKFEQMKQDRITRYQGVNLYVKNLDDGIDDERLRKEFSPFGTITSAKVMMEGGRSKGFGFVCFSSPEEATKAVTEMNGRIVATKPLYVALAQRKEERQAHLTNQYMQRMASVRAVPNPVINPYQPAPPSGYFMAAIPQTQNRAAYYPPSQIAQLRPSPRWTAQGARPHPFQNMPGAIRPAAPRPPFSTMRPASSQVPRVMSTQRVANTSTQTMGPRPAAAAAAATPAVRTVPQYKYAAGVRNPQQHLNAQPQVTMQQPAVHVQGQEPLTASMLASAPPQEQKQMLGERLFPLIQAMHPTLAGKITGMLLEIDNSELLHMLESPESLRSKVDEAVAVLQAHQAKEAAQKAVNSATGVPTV
# measurement_notes: PABP1 MLLE–PAM2 interaction inhibitors, dose response, miRNA deadenylation inhibitor project, biochemical, fluorescence polarization, Cy5-PAM2 peptide, secondary (AID 602260)
# Type: functional
# experimental_parameters: read-out: IC50_Mean
Active and inactive are the calls of the source. How the calls were made is not given here.
Each entry below carries its reported IC50.

| molecule | observed_value |
| --- | --- |
| CC(=O)c1ccc(NC(=O)C2CCCNC2=O)cc1 (configuration not stated) | > 66 µM (inactive) |
| O=C(c1ccc(F)cc1)n1c(=S)nc2ccccn21 | > 66 µM (inactive) |
| O=C(N/C(=C\c1ccco1)C(=O)N1CCCC1CO)c1ccccc1 (configuration not stated) | > 66 µM (inactive) |
| CCOc1ccc(/C=c2\sc3nc(-c4ccco4)nn3c2=O)cc1OCC | > 66 µM (inactive) |
| COc1cccc(/C=C2\SC(=O)N(CC(=O)NC3C=CS(=O)(=O)C3)C2=O)c1 (configuration not stated) | > 66 µM (inactive) |
| O=C(CSc1ccc(-c2cccnc2)nn1)c1ccc([N+](=O)[O-])cc1 | > 66 µM (inactive) |
| O=C(NNc1ccc(Cl)cc1)c1sccc1Cl | > 66 µM (inactive) |
| C#CCOCCOCCOCCNc1nc(N2CCN(C(=O)[C@H]([C@@H](C)CC)n3cc([C@@H](N)CO)nn3)CC2)nc(N2CCN(C(=O)[C@H]([C@@H](C)CC)n3cc([C@@H](N)CC(C)C)nn3)CC2)n1 | > 66 µM (inactive) |

// field: IC50; key: "Fc1ccc(NCc2cccnc2)cc1F" ; value = > 66 µM (inactive)

Per the record, "CCN=C(S)N=Nc1c(O)[nH]c2ccc([N+](=O)[O-])cc12" has IC50 of > 66 µM (inactive)

Notebook: "O=c1[nH]c(CN2CCc3ccccc3C2)nc2ccccc12" , IC50 read as > 66 µM (inactive)

IC50 recorded for this molecule, "CCOC(=O)c1c(-c2ccc(C)o2)csc1NC(=S)NC(=O)c1ccc(F)cc1" , is > 66 µM (inactive)
